assay remarks: protein stability index of a GFP-peptide fusion (yeast GPS) (PSI 1-4); higher = more stable; sorted into four equal gates, so the index is relative within each strain
condition: doa10∆
Using protein stability index as the sorting value, the categories are low value (below 2), medium value (2 to below 3), high value (3 or more)

Example cases with answers are listed next.
{"ordered residues": "GRIRTTREDVSPHYNSQ [SSN3]", "class name": "low value"}
{"ordered residues": "HRIGQKKQVHVYRFVTE [ISW2]", "class name": "medium value"}
{"ordered residues": "FVCLSCSHIFTSDQKNK [RPB9]", "class name": "medium value"}
{"ordered residues": "RQMNLVITLLNNSSITL [YCS4]", "class name": "low value"}
{"ordered residues": "AQFYLGKRIAYVYRASK [RPL33A]", "class name": "low value"}

Determine which band this sequence sits in: TSSTHERKSKTYVITKN [RET1] medium value

Determine which band this sequence sits in: STKVENSAIIQNLRKEL [YIL149C/MLP2] high value

* * *

assay remarks: protein stability index of a GFP-peptide fusion (yeast GPS) (PSI 1-4); higher = more stable; sorted into four equal gates, so the index is relative within each strain
condition: san1∆
readout: protein stability index
Numbers only.

Answered cases to consult:
{"ordered residues": "TLKKNNVAVDIINFGEI [RPN10]", "result number": 3.02}
{"ordered residues": "YHTNPGHSQFTSHYQNY [RPN4]", "result number": 3.02}
{"ordered residues": "NGQEQQGPVKNTQLHGP [RGR1]", "result number": 3.05}
{"ordered residues": "ILKSLKNRSNRKRFHSQ [YOR098C/NUP1]", "result number": 3.03}
{"ordered residues": "AERDSQGGFYKQQDAEE [UBP6]", "result number": 3.07}

For the next question, use this sequence.
Value lookup for protein stability index; key = EFIAAVNNPQEETSHLL [RPN10] 3

* * *

assay remarks: protein stability index of a GFP-peptide fusion (yeast GPS) (PSI 1-4); higher = more stable; sorted into four equal gates, so the index is relative within each strain
condition: san1∆
Consider the following sequences; for each one, report its protein stability index.
Give bare numbers.

{"ordered residues": "QLDDEDFDLLNKTLTFE [FAS1]", "result number": 3.36}
{"ordered residues": "ISTGGFMSNDGPTLEKY [SNU114]", "result number": 2.31}
{"ordered residues": "VGCKNLERLTLVFCKHI [GRR1]", "result number": 1.25}
{"ordered residues": "ISVSSRSDREYPLLIRM [SRP14]", "result number": 1.94}
{"ordered residues": "DIENKEEEYDETHETNI [YAR002W/NUP60]", "result number": 3.42}

The following sequences each have a reported value; give each one's protein stability index.
1. EGLDLLKLCVQELEKRM [PRE1]
2. NKNGENKKIGKRPPEIM [SIR4]
3. WGVNLPAHTVIIKGTDV [BRR2]
4. EEEIKKFDSRIRGILMA [PRP8]
5. TLLKNLRKKLNFKLCQA [YJR042W/NUP85]

1: 2.19; 2: 3.28; 3: 2.32; 4: 2.69; 5: 1.13

* * *

assay remarks: protein stability index of a GFP-peptide fusion (yeast GPS) (PSI 1-4); higher = more stable; sorted into four equal gates, so the index is relative within each strain
condition: ubr1∆
readout: protein stability index
One number for each entry.

Answered cases to consult:
{"ordered residues": "IEFEYDPWNKLKHTDYW [RPB3]", "protein stability index": 3.06}
{"ordered residues": "SLAWSADGQTLFAGYTD [ASC1]", "protein stability index": 3.09}
{"ordered residues": "DKVSSCFPQYVNSKQGA [NNF1]", "protein stability index": 2.95}
{"ordered residues": "RFVLSDDYSNLKREERQ [SMC3]", "protein stability index": 2.7}
{"ordered residues": "EAFNDGNENFEDFDVEH [RPO26]", "protein stability index": 3.21}

The following sequences each have a reported value; give each one's protein stability index.
1. ECFISMQSTSPAVKQWD [SWI1]
2. THTNLERDEQKRAEKKA [SNF2]

2.65
3.23

* * *

assay remarks: protein stability index of a GFP-peptide fusion (yeast GPS) (PSI 1-4); higher = more stable; sorted into four equal gates, so the index is relative within each strain
condition: ubr1∆
Quick rule: protein stability index of at least 3 means 1 (yes), below that means 0 (no).

{"ordered residues": "TLSNGLIASHYGVSFFT [BRR2]", "class name": "0 (no)"}
{"ordered residues": "LNDVVSFLFSAIPLQQV [SWI1]", "class name": "0 (no)"}
{"ordered residues": "LMKCCHEAYSIIEKITD [RRP45]", "class name": "0 (no)"}

Switching to the query record.
Entry ARQFGYVILTTSAGIMD [RPS22A] : is its protein stability index no less than 3? 0 (no)

* * *

Consider the following sequences; for each one, report its protein stability index.
assay remarks: protein stability index of a GFP-peptide fusion (yeast GPS) (PSI 1-4); higher = more stable; sorted into four equal gates, so the index is relative within each strain
condition: pdr5∆
One number for each entry.

Answered cases to consult:
{"ordered residues": "EQEIENNGLPMKNKAET [ITC1]", "protein stability index": 3.06}
{"ordered residues": "KGIDSVVRRRFRGNISQ [RPL32]", "protein stability index": 2.94}
{"ordered residues": "SFGTANTNGTNASANST [YOR098C/NUP1]", "protein stability index": 3.02}
{"ordered residues": "QGKSKLIIIAANTPVLR [RPL30]", "protein stability index": 3.08}
{"ordered residues": "ENGTLLVPPPRTIANQD [RPR2]", "protein stability index": 3.05}

The following sequences each have a reported value; give each one's protein stability index.
1. ELENFLDNFETKTEALL [YJL041W/NSP1]
2. WRKWNVKVNHNEKRYAT [RPL4A]
3. IEEEIFDDSSRIVNHKT [LIN1]
4. TQYKAGKASLFAQGKRR [RPL42A]

1. 2.91
2. 2.94
3. 2.91
4. 3.04

* * *

assay remarks: protein stability index of a GFP-peptide fusion (yeast GPS) (PSI 1-4); higher = more stable; sorted into four equal gates, so the index is relative within each strain
condition: pdr5∆
Consider the following sequences; for each one, report its protein stability index.

Answered cases to consult:
{"ordered residues": "TLVAQNLKQANNVAYGK [SMC4]", "result": 2.92}
{"ordered residues": "IGHLITKEEIMHGLQAK [RPN5]", "result": 2.96}
{"ordered residues": "VPVALKGQGPFTLTYDI [YMR129W/POM152]", "result": 2.95}
{"ordered residues": "KTSLMDLLVIDSHKRIP [SNU114]", "result": 2.73}
{"ordered residues": "IDEHIDLGIKYDPSIGI [RPL11A]", "result": 3.06}

The following sequences each have a reported value; give each one's protein stability index.
1. LMYSITFHHHGRQTVLI [SRB2]
2. GNKALEDEEEFSIFNYF [RPC34]
3. DGNNEIFTCQIMNLITN [RPN4]
4. DCLSFAPTLSQTYINQE [SSN2]
5. GLESLLNIGLGAVGLKD [YCS4]
6. QLSKAAKAAAALAGGKK [RPS25A]
7. TAGAAANALGGLGVNRR [SSN3]
8. NKRLSRGKKGLKKKVVD [RPS1B]

1: 3.18; 2: 3.37; 3: 2.62; 4: 2.76; 5: 2.61; 6: 1.86; 7: 3.04; 8: 3.44

* * *

assay remarks: protein stability index of a GFP-peptide fusion (yeast GPS) (PSI 1-4); higher = more stable; sorted into four equal gates, so the index is relative within each strain
condition: ubr1∆
Consider the following sequences; for each one, report its protein stability index.
Answers are plain numbers.

Answered cases to consult:
{"ordered residues": "QILPESQWNDSSIDKIE [SIR3]", "result number": 2.81}
{"ordered residues": "HIKEASEEVDDLSMVPK [SNF2]", "result number": 3.6}
{"ordered residues": "LSNLSKDIKANLSSNVN [YCS4]", "result number": 2.93}

The following sequences each have a reported value; give each one's protein stability index.
1. FAAKQRQELQMQRQQQG [SNF2]
2. KMDMICRNINRKHRNAQ [DIS3]
3. EEPAKEEAPAPTPAASA [FAS2]

2.7
3.12
2.98

* * *

assay remarks: protein stability index of a GFP-peptide fusion (yeast GPS) (PSI 1-4); higher = more stable; sorted into four equal gates, so the index is relative within each strain
condition: pdr5∆
Quick rule: protein stability index of at least 3 means y, below that means n.

Example cases with answers are listed next.
{"ordered residues": "DRFKPNLDIAKDLIRTD [MED4]", "class name": "y"}
{"ordered residues": "DANLLGAEVLIKGSKLS [COR1]", "class name": "n"}

Entry AVGNLGNAVTVTEDGTV [RPL22A] : is its protein stability index no less than 3? n

Entry ESVPIYSIDEFFLQRKL [BRR2] : is its protein stability index no less than 3? y

Entry KQGFVIYRVRVRRGNRK [RPL15A] : is its protein stability index no less than 3? n

Entry LHNLNEYQIVYYNPQAG [RGR1] : is its protein stability index no less than 3? n

Entry LNECLKTIQINNEKVVQ [YML031W/NDC1] : is its protein stability index no less than 3? n
